Ref: PubChem BioAssay AID652002

Quick list: EC50 per entry.
biological target: NB7+Caspase-8; test: compound enhancement of TRAIL-induced cell killing – NB7 cells plus caspase-8, luminescence, panel, dose response (AID 652002); conditions: NB7 neuroblastoma +caspase-8, TRAIL sensitization, luminescence viability, with TRAIL, run 2, single replicate panel EC50
readoutName: EC50 (µM)

>>> reportedvalue("CCOc1ccc(-c2nnc(-c3ccccc3)o2)cc1")
10.7
>>> reportedvalue("O=C(N/N=C/c1cccc(OC(=O)c2ccco2)c1)c1ccc(F)cc1")
4.55
>>> reportedvalue("Cc1ccc(NC(=O)c2cc3ccccc3o2)nc1")
8.86
>>> reportedvalue("O=C(NC1=NCCS1)c1cc2ccccc2o1")
10.4
>>> reportedvalue("CSc1ccc(/C=C/c2ccc3cccc(O)c3n2)cc1")
6.31
>>> reportedvalue("O=C(N/N=C/c1ccc2cccnc2c1)c1ccco1")
6.53
>>> reportedvalue("COc1ccc(OCC(=O)N/N=C/C=C/c2ccccc2)cc1")
1.96
>>> reportedvalue("Cc1ccc2oc(-c3cccc(N)c3)nc2c1")
5.69
>>> reportedvalue("Cc1ccn2cc(C(=O)Nc3ccc4c(c3)OCCO4)nc2c1")
4.29
>>> reportedvalue("Nc1ccccc1C(=O)NN=Cc1cccc([N+](=O)[O-])c1")
7.52
>>> reportedvalue("CC(C)C(=O)Nc1ccc(NC(=O)c2ccccn2)cn1")
9.78
>>> reportedvalue("C#CC(=O)CC1(CN(Cc2ccccc2)C(=O)OC(C)(C)C)CCCCC1")
7.51
>>> reportedvalue("Cc1cc(NC(=O)c2cncc(Br)c2)ccc1NC(=O)c1cc2ccccc2o1")
9.86
>>> reportedvalue("O=C(Nc1ccc2c(c1)OCCO2)NC1CCCCC1")
12
>>> reportedvalue("CCN(CC)c1ccc(NC(=O)Nc2ccccc2)cc1")
8.27
>>> reportedvalue("Cc1cc2nc3ccc(N(C)C)cc3nc2cc1N")
10.9
>>> reportedvalue("c1ccc(Nc2nnc(-c3cccnc3)s2)cc1")
5.66
>>> reportedvalue("COc1cc(NC(=O)c2[nH]cnc2C(N)=O)cc(C(=O)Nc2cccc(C(F)(F)F)c2)c1")
8.91
>>> reportedvalue("Cn1nnc(NC(=O)c2ccc(C(C)(C)C)cc2)n1")
5.01
>>> reportedvalue("COc1ccccc1C=NNC(=O)NN=Cc1ccccc1OC")
7.21

* * *

assay: compound enhancement of TRAIL-induced cell killing – NB7 cells plus caspase-8, luminescence, panel, dose response (AID 652002); conditions: NB7 neuroblastoma +caspase-8, no TRAIL, compound-alone cytotoxicity counter-screen, luminescence viability; NB7+Caspase-8; mean of runs
Activity calls are given as the source filed them. The rule behind the calls is not given here.
readoutName: EC50

>>> reportedvalue("Cc1nc2cc(NC(=O)Nc3cccc([N+](=O)[O-])c3)ccc2n1C")
"> 12.5 µM (inactive)"
>>> reportedvalue("CCOC(=O)[C@]12Cc3cc4ccccc4cc3[C@H]1N(Cc1ccccc1)C(=O)c1ccccc12")
"> 12.5 µM (inactive)"
>>> reportedvalue("Cc1nc(Cl)c2oc3ccccc3c2n1")
"> 12.5 µM (inactive)"
>>> reportedvalue("O=C(c1cnc(Cl)c(Cl)c1)N1CCN(S(=O)(=O)c2ccc3ccccc3c2)CC1")
"> 12.5 µM (inactive)"
>>> reportedvalue("C(=C\\c1ccco1)/c1nc2ccccc2[nH]1")
"> 12.5 µM (inactive)"

* * *

assay: compound enhancement of TRAIL-induced cell killing – NB7 cells plus caspase-8, luminescence, panel, dose response (AID 652002); settings: NB7 neuroblastoma +caspase-8, no TRAIL, compound-alone cytotoxicity counter-screen, luminescence viability; NB7+Caspase-8; mean of runs
Activity calls are given as the source filed them. No rule for the calls is given here.
readoutName: EC50

>>> reportedvalue("CCOC(=O)c1sc(NC(=O)c2cc(-c3ccccc3C)nc3ccccc23)c(C#N)c1C")
"> 12.5 µM (inactive)"
>>> reportedvalue("O=c1[nH]c(N/N=C\\c2ccc3c(c2)OCO3)nc2ccccc12")
"inactive"
>>> reportedvalue("O=C(NC(=O)c1ccccc1)Nc1ccccc1")
"> 12.5 µM (inactive)"
>>> reportedvalue("Cc1cc2nc3ccc(N(C)C)cc3nc2cc1N")
"> 12.5 µM (inactive)"
>>> reportedvalue("COc1ccc2sc(-c3ccc(S(C)(=O)=O)cc3)c(C#Cc3cncn3C)c2c1")
"> 12.5 µM (inactive)"
>>> reportedvalue("CCSc1ccc(-c2ccc(C)cc2)nn1")
"inactive"
>>> reportedvalue("COc1ccc(-c2nc(-c3ccc(NC(=O)c4ccncc4)cc3)no2)cc1OC")
"> 12.5 µM (inactive)"
>>> reportedvalue("O=C(NC(=S)Nc1nc2c(s1)CCCC2)c1ccccc1")
"> 12.5 µM (inactive)"
>>> reportedvalue("Cc1ccn2cc(C(=O)Nc3ccc4c(c3)OCCO4)nc2c1")
"inactive"
>>> reportedvalue("CC(C)(C)OC(=O)NCc1ccc(NC(=O)c2nc[nH]c2C(=O)N[C@@H](Cc2ccccc2)C(=O)OCc2ccccc2)cc1")
"> 12.5 µM (inactive)"
>>> reportedvalue("COc1cc(SC#N)ccc1N=Cc1c(C)[nH]n(-c2ccc(Cl)cc2)c1=O")
"> 12.5 µM (inactive)"
>>> reportedvalue("C#Cc1ccc(NC(=O)C2(C)CCN2C(=O)Cc2ccc(C(C)C)cc2)cc1 (configuration not stated)")
"inactive"
>>> reportedvalue("CCCCCCc1cc2cc(S(=O)(=O)c3ccc(F)c(Cl)c3)c(=O)oc2cc1O")
"> 12.5 µM (inactive)"
>>> reportedvalue("CCOC(=O)C(=C1Nc2ccccc2N1)n1c(-c2cccnc2)nc2ccccc21")
"inactive"
>>> reportedvalue("O=C1CCCCC1Sc1nnc(-c2ccc3c(c2)OCO3)o1 (configuration not stated)")
"inactive"
>>> reportedvalue("CC1(Cc2ccc(OC(F)(F)F)cc2)C(=O)Nc2ccc(S(=O)(=O)NC3CCCCC3)cc21 (configuration not stated)")
"inactive"
>>> reportedvalue("O=C(Nc1ccc2c(c1)OCO2)c1ccc2c(c1)OCO2")
"inactive"
>>> reportedvalue("CC(=O)c1ccc(NC(=O)Nc2cccnc2)cc1")
"inactive"
>>> reportedvalue("CC(C)CCn1cnc2c([nH]c3cccc(Cl)c32)c1=O")
"> 12.5 µM (inactive)"
>>> reportedvalue("O=c1[nH]c(=S)[nH]c2c1C(c1ccc(Cl)c(Cl)c1)OC(CCc1ccccc1)C2 (configuration not stated)")
"> 12.5 µM (inactive)"
>>> reportedvalue("COc1ccc(/C=N/Nc2nc3ccccc3c(=O)n2-c2ccccc2)cc1OC")
"inactive"
>>> reportedvalue("COc1cccc(C(=O)Nc2ccc(C3CC3(Cl)Cl)cc2)c1 (configuration not stated)")
"> 12.5 µM (inactive)"
>>> reportedvalue("COc1ccc(OCC(=O)N/N=C/C=C/c2ccccc2)cc1")
"inactive"
>>> reportedvalue("CCCCCc1cc(=O)oc2c(C(CCN(CC)CC)c3cc(OC)c(OC)c(OC)c3)c(OC)cc(OC)c12 (configuration not stated)")
"> 12.5 µM (inactive)"
>>> reportedvalue("CC(C)(C)OC(=O)[C@H](Cc1ccccc1)NC(=O)c1[nH]cnc1C(=O)Nc1ccccc1F")
"> 12.5 µM (inactive)"
>>> reportedvalue("O=C(Nc1ccc2[nH]ccc2c1)c1cccs1")
"inactive"
>>> reportedvalue("O=C(Nc1ccc(Br)cc1F)c1ccc2c(c1)OCCO2")
"inactive"
